Assay: AUC in Beagle dog at 1 mg/kg, iv
Type: ADME, organism-based, Canis lupus familiaris
Parameters: dose 1 mg/kg, route intravenous
Conditions: plasma
QUANTITY: AUC (ng·h/mL)
Write it as a number; the unit ng·h/mL goes unstated.

Fc1ccc(-c2nn3c(OCC(F)(F)F)cccc3c2-c2ccncc2)cc1
1500

Now turn to the next compound.
**Q:** Which AUC value belongs to Fc1ccc(-c2nn3ccccc3c2-c2ccncc2)cc1 [GW434756X] ?
**A:** 500

* * *

Below: a set of entries, each annotated with reported metabolised at 0.5 h.
Assay: Metabolic stability in dog liver S9 microsomal fraction assessed as parent compound turnover after 30 mins
Format: ADME, subcellular, Canis lupus familiaris
Conditions: read-out: Stability
Only the number, expressed in %, is required.

Consider the following illustrative entries.
Fc1ccc(-c2nn3cc(C(F)(F)F)ccc3c2-c2ccncc2)cc1
0
Fc1ccc(-c2nn3ccccc3c2-c2ccncc2)cc1 [GW434756X]
81

**Q:** Entry under review: Cc1ccc2c(-c3ccncc3)c(-c3ccc(F)cc3)nn2c1 . Reported metabolised at 0.5 h?
**A:** 81

* * *

Target: [Pyruvate dehydrogenase (acetyl-transferring)] kinase isozyme 4, mitochondrial (Homo sapiens)
Sequence (Q16654 whole entry): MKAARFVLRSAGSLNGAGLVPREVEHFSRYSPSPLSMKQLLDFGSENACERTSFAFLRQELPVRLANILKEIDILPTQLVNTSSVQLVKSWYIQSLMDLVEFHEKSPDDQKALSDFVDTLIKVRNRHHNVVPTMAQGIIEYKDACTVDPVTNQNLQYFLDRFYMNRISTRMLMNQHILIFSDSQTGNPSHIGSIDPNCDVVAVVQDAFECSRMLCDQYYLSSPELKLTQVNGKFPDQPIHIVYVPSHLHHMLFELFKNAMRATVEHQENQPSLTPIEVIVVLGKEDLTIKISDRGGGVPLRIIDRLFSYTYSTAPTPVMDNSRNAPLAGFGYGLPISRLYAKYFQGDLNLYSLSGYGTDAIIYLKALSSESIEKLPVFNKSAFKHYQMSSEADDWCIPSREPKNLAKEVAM
QUANTITY: IC50

**Q:** # get_value(readout='IC50', item= Fc1ccc(-c2nn3ccccc3c2-c2ccncc2)cc1 [GW434756X] )
**A:** > 10 µM

* * *

Entries annotated with measured metabolised at 0.5 h
Assay: Metabolic stability in dog liver S9 microsomal fraction assessed as parent compound turnover after 30 mins
Assay type: ADME, subcellular, Canis lupus familiaris
Conditions: read-out: Stability
Write it as a number; the unit % goes unstated.

Worked examples, 5 compounds total:
Fc1ccc(-c2nn3c(Cl)cccc3c2-c2ccncc2)cc1
84
Fc1ccc(-c2nn3c(OCC(F)(F)F)cccc3c2-c2ccncc2)cc1
0
Fc1ccc(-c2nn3c(OC4CCCC4)cccc3c2-c2ccncc2)cc1
18
Fc1ccc(-c2nn3cc(F)ccc3c2-c2ccncc2)cc1
23
Fc1ccc(-c2nn3cccc(F)c3c2-c2ccncc2)cc1
39

Note: attention shifts to another entry.
**Q:** Can you look up the measured metabolised at 0.5 h of Cc1cccc2c(-c3ccncc3)c(-c3ccc(F)cc3)nn12 for me?
**A:** 93

* * *

Assay: Half life in Lewis rat at 5 mg/kg, iv
Assay type: ADME, organism-based
Design: dose 5 mg/kg, route intravenous
Details: in vivo
QUANTITY: half-life (h)
Please reply with the bare figure in h and do not write the unit itself.

**Q:** Consider the compound shown here: Fc1ccc(-c2nn3ccccc3c2-c2ccncc2)cc1 [GW434756X] What is its recorded half-life?
**A:** 1.2

* * *

Target: Receptor tyrosine-protein kinase erbB-2 (Homo sapiens, UniProt P04626)
Sequence (P04626 whole entry): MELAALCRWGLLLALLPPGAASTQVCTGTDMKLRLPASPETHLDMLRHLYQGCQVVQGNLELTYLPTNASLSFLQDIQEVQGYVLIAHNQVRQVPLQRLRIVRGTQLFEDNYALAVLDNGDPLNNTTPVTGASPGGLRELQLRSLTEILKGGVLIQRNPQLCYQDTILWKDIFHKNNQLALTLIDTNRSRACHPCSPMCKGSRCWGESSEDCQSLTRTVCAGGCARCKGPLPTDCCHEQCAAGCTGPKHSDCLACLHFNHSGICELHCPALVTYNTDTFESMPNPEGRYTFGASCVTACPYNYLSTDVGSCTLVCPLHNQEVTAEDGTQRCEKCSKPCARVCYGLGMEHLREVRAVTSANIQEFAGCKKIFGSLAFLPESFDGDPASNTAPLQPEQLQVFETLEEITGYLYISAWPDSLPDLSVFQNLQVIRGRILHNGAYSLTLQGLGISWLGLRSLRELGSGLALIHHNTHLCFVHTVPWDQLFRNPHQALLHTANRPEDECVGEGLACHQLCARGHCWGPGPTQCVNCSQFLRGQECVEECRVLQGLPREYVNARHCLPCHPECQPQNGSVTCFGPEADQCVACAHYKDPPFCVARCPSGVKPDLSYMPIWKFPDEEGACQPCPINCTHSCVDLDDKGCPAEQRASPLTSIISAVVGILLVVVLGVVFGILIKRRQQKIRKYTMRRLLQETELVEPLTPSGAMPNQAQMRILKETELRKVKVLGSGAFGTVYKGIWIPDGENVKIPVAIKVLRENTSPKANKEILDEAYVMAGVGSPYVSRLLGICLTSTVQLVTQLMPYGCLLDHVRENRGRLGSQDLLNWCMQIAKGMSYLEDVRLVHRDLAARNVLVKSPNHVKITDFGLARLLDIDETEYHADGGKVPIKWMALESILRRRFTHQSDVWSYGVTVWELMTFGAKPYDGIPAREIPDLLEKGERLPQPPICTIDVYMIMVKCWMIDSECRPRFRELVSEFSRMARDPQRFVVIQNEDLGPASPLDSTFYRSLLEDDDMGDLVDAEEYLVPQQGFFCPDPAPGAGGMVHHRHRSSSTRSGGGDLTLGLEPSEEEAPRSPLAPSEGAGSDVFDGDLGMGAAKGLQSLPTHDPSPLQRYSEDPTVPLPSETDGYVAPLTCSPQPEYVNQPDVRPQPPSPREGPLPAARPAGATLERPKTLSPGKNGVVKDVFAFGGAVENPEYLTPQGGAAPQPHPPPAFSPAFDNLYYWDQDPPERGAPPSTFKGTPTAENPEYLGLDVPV
QUANTITY: IC50

**Q:** What reported IC50 corresponds to Fc1ccc(-c2nn3ccccc3c2-c2ccncc2)cc1 [GW434756X] on Receptor tyrosine-protein kinase erbB-2 (Homo sapiens, UniProt P04626)?
**A:** > 10 µM

* * *

Overview of reported half-life across a group of compounds:
Test: Half life in Beagle dog at 1 mg/kg, iv
Assay type: ADME, organism-based, Canis lupus familiaris
Parameters: dose 1 mg/kg, route intravenous
Details: in vivo
# value in h; strip the unit string

Fc1ccc(-c2nn3c(OCC(F)(F)F)cccc3c2-c2ccncc2)cc1
6.5

// moving on: another record for half-life
**Q:** Requested read-out: half-life. Entry: Fc1ccc(-c2nn3ccccc3c2-c2ccncc2)cc1 [GW434756X]
**A:** 1.9
